Give inhibition for every item shown.
- measured_target: Proto-oncogene tyrosine-protein kinase Src (Homo sapiens) (UniProt P12931);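 also: values are averaged inhibition of Src, tested against the GSK PKIS kinase inhibitor set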
- Sequence (P12931 2-536 limits assumed): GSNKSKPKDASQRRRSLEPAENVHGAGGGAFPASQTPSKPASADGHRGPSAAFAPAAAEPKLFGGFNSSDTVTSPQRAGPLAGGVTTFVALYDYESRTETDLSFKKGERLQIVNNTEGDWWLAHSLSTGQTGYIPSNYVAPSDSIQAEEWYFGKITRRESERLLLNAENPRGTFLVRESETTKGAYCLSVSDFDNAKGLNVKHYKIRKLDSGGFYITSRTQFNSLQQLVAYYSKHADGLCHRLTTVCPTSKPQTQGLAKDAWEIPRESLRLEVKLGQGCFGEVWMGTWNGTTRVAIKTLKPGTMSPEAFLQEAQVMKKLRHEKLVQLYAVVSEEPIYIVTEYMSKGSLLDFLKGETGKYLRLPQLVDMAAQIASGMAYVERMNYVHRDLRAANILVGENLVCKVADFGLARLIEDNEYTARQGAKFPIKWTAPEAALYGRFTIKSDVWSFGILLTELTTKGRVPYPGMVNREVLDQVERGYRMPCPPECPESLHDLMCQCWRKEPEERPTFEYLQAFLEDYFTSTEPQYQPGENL
- condition_set: at 0.1 µM
Numbers only, in %.

# smiles_code, inhibition, %
records = [
    ("O=C(O[C@H]1CN[C@H](C#Cc2cc3ncnc(Nc4ccc(Cc5ccccc5)cc4)c3s2)C1)N1CCOCC1", 3.84),
    ("CC(=O)NCc1cccc(C#Cc2cncnc2Nc2ccc(OCc3cccc(F)c3)c(Cl)c2)c1", 0.53),
    ("CC(=O)Nc1cccc(C#Cc2cncnc2Nc2ccc(OCc3cccc(F)c3)c(Cl)c2)c1", 10.8),
]

Would you mind listing inhibition for each of the following compounds?
1. COc1cc(N2CCN(C(C)C)CC2)ccc1Nc1nc(Nc2ccc(F)cc2C(N)=O)c2cc[nH]c2n1
2. O=C(Nc1n[nH]c2cc(-c3ccc(F)cc3)ccc12)C1CC1

Reply text:
1: 6.34; 2: 0.9

Data provenance is ChEMBL document CHEMBL1961873.
